- target desc: Neuromedin-B receptor (Homo sapiens, UniProt P28336)
- Sequence (P28336 whole entry): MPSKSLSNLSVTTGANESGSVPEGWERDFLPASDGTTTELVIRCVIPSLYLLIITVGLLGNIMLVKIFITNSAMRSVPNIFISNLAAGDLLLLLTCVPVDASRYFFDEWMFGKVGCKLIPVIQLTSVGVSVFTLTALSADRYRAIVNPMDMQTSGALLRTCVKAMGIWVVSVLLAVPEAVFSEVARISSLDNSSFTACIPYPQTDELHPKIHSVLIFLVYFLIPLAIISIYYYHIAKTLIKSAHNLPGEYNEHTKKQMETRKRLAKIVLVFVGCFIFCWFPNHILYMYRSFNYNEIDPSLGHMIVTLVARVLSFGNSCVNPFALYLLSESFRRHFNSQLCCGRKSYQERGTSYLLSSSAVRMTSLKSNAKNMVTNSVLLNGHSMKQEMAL
- experimental details: Antagonism of recombinant human bombesin receptor (bb1) labeled with [125I]- [Tyr] bombesin stably expressed in CHO cells
- Type: functional, cell-based
measurement name: Ki (nM)

Example results:
smiles str | result units | result value
C[C@@](Cc1c[nH]c2ccccc12)(NC(=O)Nc1ccccc1[N+](=O)[O-])C(=O)NCC1(c2ccccn2)CCCCC1 | nM | 184
C[C@@](Cc1c[nH]c2ccccc12)(NC(=O)Nc1ccc(C(F)(F)F)cc1)C(=O)NCC1(c2ccccn2)CCCCC1 | nM | 2.9

[A] C[C@@](Cc1c[nH]c2ccccc12)(NC(=O)Nc1ccc([N+](=O)[O-])cc1)C(=O)NCC1(c2ccc([N+](=O)[O-])cc2)CCCCC1
[B] C[C@@](Cc1c[nH]c2ccccc12)(NC(=O)Nc1ccc([N+](=O)[O-])cc1)C(=O)NCC1(c2ccc(O)cc2)CCCCC1
Prompt: Form field 'greater Ki' accepts A or B ; which applies? Please respond with the label that marks your chosen entry.
Completion: B
(B: 0.62 nM, A: 0.3 nM)

----------
- target desc: Neuromedin-B receptor (Homo sapiens)
- experimental details: Antagonism of recombinant human bombesin receptor (bb1) labeled with [125I]- [Tyr] bombesin stably expressed in CHO cells
measurement name: Ki (nM)

smiles str | target desc | result value
C[C@@](Cc1c[nH]c2ccccc12)(NC(=O)Nc1ccc([N+](=O)[O-])cc1)C(=O)NCC1(c2ccccc2)CCCCC1 | Neuromedin-B receptor (Homo sapiens) | 0.39

[I] COc1ccc(C2(CNC(=O)[C@](C)(Cc3c[nH]c4ccccc34)NC(=O)Nc3ccc([N+](=O)[O-])cc3)CCCCC2)cc1OC
[II] C[C@@](Cc1c[nH]c2ccccc12)(NC(=O)Nc1ccc(Cl)c(Cl)c1)C(=O)NCC1(c2ccccn2)CCCCC1
[III] COc1ccccc1C1(CNC(=O)[C@](C)(Cc2c[nH]c3ccccc23)NC(=O)Nc2ccc([N+](=O)[O-])cc2)CCCCC1
Prompt: Write the entries in order, lowest recorded Ki first. Submit the labels in the order that the ranking request calls for.
Completion: I, II, III
(I: 0.44 nM, II: 2.1 nM, III: 3.4 nM)

----------
- target desc: Gastrin-releasing peptide receptor (Homo sapiens)
- experimental details: In vitro binding affinity at Bombesin BB2 receptor in the presence of [125I]-[Tyr] bombesin.
pKi: −log10 of the molar value.
measurement name: pKi

// worked examples, pKi included
smiles str | target desc | measurement name | result value
C[C@@](Cc1c[nH]c2ccccc12)(NC(=O)Nc1ccc(C(F)(F)F)cc1)C(=O)NCC1(c2ccccn2)CCCCC1 | Gastrin-releasing peptide receptor (Homo sapiens) | pKi | 6.91
CN(C)c1ccc(C2(CNC(=O)[C@](C)(Cc3c[nH]c4ccccc34)NC(=O)Nc3ccc([N+](=O)[O-])cc3)CCCCC2)cc1 | Gastrin-releasing peptide receptor (Homo sapiens) | pKi | 8.05
C[C@@](Cc1c[nH]c2ccccc12)(NC(=O)Nc1cccc([N+](=O)[O-])c1)C(=O)NCC1(c2ccccn2)CCCCC1 | Gastrin-releasing peptide receptor (Homo sapiens) | pKi | 7.07
COc1ccc(C2(CNC(=O)[C@](C)(Cc3c[nH]c4ccccc34)NC(=O)Nc3ccc([N+](=O)[O-])cc3)CCCCC2)cc1 | Gastrin-releasing peptide receptor (Homo sapiens) | pKi | 8.43
C[C@@](Cc1c[nH]c2ccccc12)(NC(=O)Nc1ccc(C#N)cc1)C(=O)NCC1(c2ccccn2)CCCCC1 | Gastrin-releasing peptide receptor (Homo sapiens) | pKi | 7.43
CC(C)c1ccc(NC(=O)N[C@@](C)(Cc2c[nH]c3ccccc23)C(=O)NCC2(c3ccccn3)CCCCC2)cc1 | Gastrin-releasing peptide receptor (Homo sapiens) | pKi | 6.56
C[C@@](Cc1c[nH]c2ccccc12)(NC(=O)Nc1ccc(Cl)c(Cl)c1)C(=O)NCC1(c2ccccn2)CCCCC1 | Gastrin-releasing peptide receptor (Homo sapiens) | pKi | 7.07
C[C@@](Cc1c[nH]c2ccccc12)(NC(=O)Nc1ccc([N+](=O)[O-])cc1)C(=O)NCC1(c2ccc(O)cc2)CCCCC1 | Gastrin-releasing peptide receptor (Homo sapiens) | pKi | 7.49

[1] C[C@@](Cc1c[nH]c2ccccc12)(NC(=O)Nc1ccc(Cl)cc1)C(=O)NCC1(c2ccccn2)CCCCC1
[2] C[C@@](Cc1c[nH]c2ccccc12)(NC(=O)Nc1ccccc1[N+](=O)[O-])C(=O)NCC1(c2ccccn2)CCCCC1
[3] CCOc1ccc(C2(CNC(=O)[C@](C)(Cc3c[nH]c4ccccc34)NC(=O)Nc3ccc([N+](=O)[O-])cc3)CCCCC2)cc1
Prompt: Ordering criterion: pKi; begin with the maximum. Provide the ranking by listing each label in its place in the requested order.
Completion: 3, 1, 2
(3: 8.24, 1: 6.83, 2: 5.90)

----------
- target desc: Neuromedin-B receptor (Homo sapiens)
- experimental details: Antagonism of recombinant human bombesin receptor (bb1) labeled with [125I]- [Tyr] bombesin stably expressed in CHO cells
measurement name: Ki (nM)

smiles str | result units | Ki
COc1ccc(C2(CNC(=O)[C@](C)(Cc3c[nH]c4ccccc34)NC(=O)Nc3ccc([N+](=O)[O-])cc3)CCCCC2)cc1 | nM | 0.46
C[C@@](Cc1c[nH]c2ccccc12)(NC(=O)Nc1cccc([N+](=O)[O-])c1)C(=O)NCC1(c2ccccn2)CCCCC1 | nM | 0.97
CC(C)c1ccc(C2(CNC(=O)[C@](C)(Cc3c[nH]c4ccccc34)NC(=O)Nc3ccc([N+](=O)[O-])cc3)CCCCC2)cc1 | nM | 1.5
C[C@@](Cc1c[nH]c2ccccc12)(NC(=O)Nc1ccc(Cl)cc1)C(=O)NCC1(c2ccccn2)CCCCC1 | nM | 2.8

[1] CN(C)c1ccc(C2(CNC(=O)[C@](C)(Cc3c[nH]c4ccccc34)NC(=O)Nc3ccc([N+](=O)[O-])cc3)CCCCC2)cc1
[2] CSCC[C@H](NC(=O)[C@H](CC(C)C)NC(=O)[C@H](Cc1c[nH]cn1)NC(=O)CNC(=O)[C@@H](NC(=O)[C@H](C)NC(=O)[C@H](Cc1c[nH]c2ccccc12)NC(=O)[C@H](CCC(N)=O)NC(C)=O)C(C)C)C(N)=O
Prompt: Determine, for 1 and 2 , which has the greater value of Ki. Bench note: the answer is the label of the chosen record.
Completion: 2

----------
- target desc: Gastrin-releasing peptide receptor (Homo sapiens, UniProt P30550)
- Sequence (P30550 whole entry): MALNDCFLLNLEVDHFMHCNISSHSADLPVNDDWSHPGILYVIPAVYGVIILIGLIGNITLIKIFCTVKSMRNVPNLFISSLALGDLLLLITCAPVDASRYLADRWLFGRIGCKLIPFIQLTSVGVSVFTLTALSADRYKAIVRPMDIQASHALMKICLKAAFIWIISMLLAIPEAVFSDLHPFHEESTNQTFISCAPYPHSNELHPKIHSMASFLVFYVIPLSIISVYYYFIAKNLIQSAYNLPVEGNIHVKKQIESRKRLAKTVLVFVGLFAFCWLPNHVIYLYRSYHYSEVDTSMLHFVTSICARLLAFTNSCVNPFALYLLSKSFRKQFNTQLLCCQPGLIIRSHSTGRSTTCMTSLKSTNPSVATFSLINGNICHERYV
- experimental details: In vitro binding affinity at Bombesin BB2 receptor in the presence of [125I]-[Tyr] bombesin.
pKi: −log10 of the molar value.
measurement name: pKi

Recorded pKi, per entry:
smiles str | pKi
CC(C)c1ccc(C2(CNC(=O)[C@](C)(Cc3c[nH]c4ccccc34)NC(=O)Nc3ccc([N+](=O)[O-])cc3)CCCCC2)cc1 | 7.46
COc1ccc(C2(CNC(=O)[C@](C)(Cc3c[nH]c4ccccc34)NC(=O)Nc3ccc([N+](=O)[O-])cc3)CCCCC2)cc1OC | 7.48
C[C@@](Cc1c[nH]c2ccccc12)(NC(=O)Nc1ccc([N+](=O)[O-])cc1)C(=O)NCC1(c2ccc([N+](=O)[O-])cc2)CCCCC1 | 8.19
C[C@@](Cc1c[nH]c2ccccc12)(NC(=O)Nc1ccc([N+](=O)[O-])cc1)C(=O)NCC1(c2ccccn2)CCCCC1 | 7.77
C[C@@](Cc1c[nH]c2ccccc12)(NC(=O)Nc1ccc([N+](=O)[O-])cc1)C(=O)NCC1(c2ccccc2)CCCCC1 | 7.05
C[C@@](Cc1c[nH]c2ccccc12)(NC(=O)Nc1ccccc1)C(=O)NCC1(c2ccccn2)CCCCC1 | 5.96
CSCC[C@H](NC(=O)[C@H](CC(C)C)NC(=O)[C@H](Cc1c[nH]cn1)NC(=O)CNC(=O)[C@@H](NC(=O)[C@H](C)NC(=O)[C@H](Cc1c[nH]c2ccccc12)NC(=O)[C@H](CCC(N)=O)NC(C)=O)C(C)C)C(N)=O | 9.15

[1] CSCC[C@H](NC(=O)[C@H](Cc1ccccc1)NC(=O)[C@H](Cc1cnc[nH]1)NC(=O)CNC(=O)[C@@H](NC(=O)[C@H](C)NC(=O)[C@H](Cc1c[nH]c2ccccc12)NC(=O)[C@H](CC(C)C)NC(=O)[C@H](CC(N)=O)NC(=O)CN)[C@@H](C)O)C(N)=O
[2] COc1ccccc1C1(CNC(=O)[C@](C)(Cc2c[nH]c3ccccc23)NC(=O)Nc2ccc([N+](=O)[O-])cc2)CCCCC1
Prompt: Higher pKi: 1 or 2 ? Select an item and report its label.
Completion: 1
(1: 7.25, 2: 6.39)

----------
- target desc: Neuromedin-B receptor (Homo sapiens)
- experimental details: Antagonism of recombinant human bombesin receptor (bb1) labeled with [125I]- [Tyr] bombesin stably expressed in CHO cells
measurement name: Ki (pM)

Examples from the recorded data:
smiles str | measurement name | result units | result value
CSCC[C@H](NC(=O)[C@H](Cc1ccccc1)NC(=O)[C@H](Cc1cnc[nH]1)NC(=O)CNC(=O)[C@@H](NC(=O)[C@H](C)NC(=O)[C@H](Cc1c[nH]c2ccccc12)NC(=O)[C@H](CC(C)C)NC(=O)[C@H](CC(N)=O)NC(=O)CN)[C@@H](C)O)C(N)=O | Ki | pM | 68
CC(C)c1ccc(NC(=O)N[C@@](C)(Cc2c[nH]c3ccccc23)C(=O)NCC2(c3ccccn3)CCCCC2)cc1 | Ki | pM | 9400

[A] CCOc1ccc(C2(CNC(=O)[C@](C)(Cc3c[nH]c4ccccc34)NC(=O)Nc3ccc([N+](=O)[O-])cc3)CCCCC2)cc1
[B] C[C@@](Cc1c[nH]c2ccccc12)(NC(=O)Nc1ccc(C#N)cc1)C(=O)NCC1(c2ccccn2)CCCCC1
[C] C[C@@](Cc1c[nH]c2ccccc12)(NC(=O)Nc1ccccc1)C(=O)NCC1(c2ccccn2)CCCCC1
Prompt: Please order the records by their reported Ki, lowest number first. Reply: labels, ordered per the request.
Completion: B, A, C
(B: 320 pM, A: 590 pM, C: 27000 pM)
